pIC50 reference
Target: recombinant mouse GALK1 (Mus musculus)
Assay: mGALK1 biochemical activity assay (Kinase-Glo Plus, ATP depletion)
Conditions: recombinant mouse GALK1, Kinase-Glo Plus ATP depletion; read-out: mGALK
pIC50: −log10 of the molar value.

compound: COC(=O)c1ccnc(NC(=O)C2=C(C)NC(Nc3nc4ccccc4o3)=NC2c2ccccc2Cl)c1 (stereo not shown)
pIC50: 5.26
//
compound: CC1=C(C(=O)Nc2cc(C(=O)O)ccn2)C(c2cc(C(=O)O)ccc2Cl)N=C(Nc2nc3ccc(F)cc3o2)N1 (stereo not shown)
pIC50: 4.91
//
compound: CC1=C(C(=O)Nc2ccc(C(N)=O)cc2)C(c2ccccc2Cl)N=C(Nc2nc3ccccc3o2)N1 (stereo not shown)
pIC50: 5.16
//
compound: COC(=O)c1csc(NC(=O)C2=C(C)NC(Nc3nc4ccccc4o3)=NC2c2ccccc2Cl)n1 (stereo not shown)
pIC50: 4.86

---

Target: recombinant mouse GALK1 (Mus musculus, UniProt Q9R0N0)
Sequence (Q9R0N0 whole entry): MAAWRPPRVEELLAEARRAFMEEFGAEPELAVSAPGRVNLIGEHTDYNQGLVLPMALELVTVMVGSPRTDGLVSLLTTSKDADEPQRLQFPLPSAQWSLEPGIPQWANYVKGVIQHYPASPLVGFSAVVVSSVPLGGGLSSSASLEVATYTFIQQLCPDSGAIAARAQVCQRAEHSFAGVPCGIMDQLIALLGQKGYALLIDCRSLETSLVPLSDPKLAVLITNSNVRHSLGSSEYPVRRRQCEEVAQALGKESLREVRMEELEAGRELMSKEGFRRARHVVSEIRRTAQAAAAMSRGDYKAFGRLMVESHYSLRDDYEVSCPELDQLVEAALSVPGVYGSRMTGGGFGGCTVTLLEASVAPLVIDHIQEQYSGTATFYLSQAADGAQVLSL
Assay: mGALK1 biochemical activity assay (Kinase-Glo Plus, ATP depletion)
Conditions: recombinant mouse GALK1, Kinase-Glo Plus ATP depletion; read-out: mGALK
pIC50: −log10 of the molar value.
Quick rule: pIC50 of at least 5 means Condition met, below that means Condition not met.

molecule: CC1=C(C(=O)NCc2cnn(C)c2)C(c2ccccc2Cl)N=C(Nc2nc3cccc(N)c3o2)N1 (stereo not shown)
labelClass: Condition met
//
molecule: CC1=C(C(=O)NCc2cnn(Cc3ccccc3)c2)C(c2ccc(C)cc2Cl)N=C(Nc2nc3ccc(F)cc3o2)N1 (stereo not shown)
labelClass: Condition met
//
molecule: CC1=C(C(=O)Nc2cc(C(N)=O)ccn2)C(c2ccccc2Cl)N=C(Nc2nc3ccc(F)cc3o2)N1 (stereo not shown)
labelClass: Condition not met
//
molecule: CC1=C(C(=O)Nc2cc(C(=O)O)ccn2)C(c2ccc(Cl)cc2Cl)N=C(Nc2nc3ccc(F)cc3o2)N1 (stereo not shown)
labelClass: Condition met
//
molecule: CC1=C(C(=O)Nc2ccc(Br)cc2)C(c2ccccc2Cl)N=C(Nc2nc3ccccc3o2)N1 (stereo not shown)
labelClass: Condition not met
//
molecule: CC1=C(C(=O)Nc2cc(C(=O)O)ccn2)C(c2ccccc2Br)N=C(Nc2nc3ccc(F)cc3o2)N1 (stereo not shown)
labelClass: Condition met

---

Experiment: rat microsomal stability (RLM)
Details: microsomal stability half-life
reportedEndpoint: Metab. Stabil. (m)

compound: CC1=C(C(=O)Nc2nncs2)C(c2ccccc2Cl)N=C(Nc2nc3ccccc3o2)N1 (stereo not shown)
relationSymbol: >
observedMeasurement: 30
//
compound: CC1=C(C(=O)Nc2ccc(C#N)cc2)C(c2ccccc2Cl)N=C(Nc2nc3ccccc3o2)N1 (stereo not shown)
relationSymbol: =
observedMeasurement: 25.33
//
compound: CC1=C(C(=O)Nc2ccc(C(=O)O)cc2)C(c2ccccc2Cl)N=C(Nc2nc3ccccc3o2)N1 (stereo not shown)
relationSymbol: >
observedMeasurement: 30
//
compound: CC1=C(C(=O)NCc2cn(C)cn2)[C@@H](c2ccccc2Cl)N=C(Nc2nc3ccccc3o2)N1
relationSymbol: =
observedMeasurement: 8.726

---

Target: recombinant human GALK1 (Homo sapiens, UniProt P51570)
Sequence (P51570 whole entry): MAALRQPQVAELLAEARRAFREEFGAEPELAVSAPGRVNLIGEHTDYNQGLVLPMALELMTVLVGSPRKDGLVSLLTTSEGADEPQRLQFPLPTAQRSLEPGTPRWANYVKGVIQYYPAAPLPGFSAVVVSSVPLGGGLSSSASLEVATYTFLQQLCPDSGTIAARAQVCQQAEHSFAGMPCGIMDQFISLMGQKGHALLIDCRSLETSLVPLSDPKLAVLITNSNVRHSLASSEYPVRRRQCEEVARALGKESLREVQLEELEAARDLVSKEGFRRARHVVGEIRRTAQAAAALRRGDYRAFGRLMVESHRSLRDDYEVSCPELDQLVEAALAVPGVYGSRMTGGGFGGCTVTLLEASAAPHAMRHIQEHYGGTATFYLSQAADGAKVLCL
Test: hGALK1 biochemical activity assay (Kinase-Glo Plus, ATP depletion)
Details: Tables 2-15; 35 μM ATP, 100 μM galactose, 1 h; bracketed figure after some values (e.g. −1.2) is undefined and not reported; read-out: hGALK IC50
pIC50: −log10 of the molar value.
reportedEndpoint: pIC50

compound: CC1=C(C(=O)NCc2ccccc2CO)C(c2ccccc2Cl)N=C(Nc2nc3ccccc3o2)N1 (stereo not drawn) [Compound 229]
assayedSystem: recombinant human GALK1 (Homo sapiens, UniProt P51570)
observedMeasurement: 5.21

compound: CC1=C(C(=O)Nc2ccccc2)C(c2ccccc2Cl)N=C(Nc2nc3ccccc3o2)N1 (stereo not drawn) [Compound 137]
assayedSystem: recombinant human GALK1 (Homo sapiens, UniProt P51570)
observedMeasurement: 4.96

compound: CC1=C(C(=O)NCc2cnn(C(C)(C)C)c2)C(c2ccc(C)cc2Cl)N=C(Nc2nc3ccc(F)c(N)c3o2)N1 (stereo not drawn) [Compound 132]
assayedSystem: recombinant human GALK1 (Homo sapiens, UniProt P51570)
observedMeasurement: 6.11

compound: CC1=C(C(=O)Nc2ccc(-c3cn[nH]c3)cc2)C(c2ccccc2Cl)N=C(Nc2nc3ccccc3o2)N1 (stereo not drawn) [Compound 179]
assayedSystem: recombinant human GALK1 (Homo sapiens, UniProt P51570)
observedMeasurement: 5.16

compound: CC1=C(C(=O)NCc2c(C)nn(C)c2C)C(c2ccc(C)cc2Cl)N=C(Nc2nc3cccc(N)c3o2)N1 (stereo not drawn) [Compound 113]
assayedSystem: recombinant human GALK1 (Homo sapiens, UniProt P51570)
observedMeasurement: 5.91

compound: CC1=C(C(=O)Nc2cc(C(=O)O)ccn2)[C@H](c2ccccc2Cl)N=C(Nc2nc3ccccc3o2)N1 [Compound 208]
assayedSystem: recombinant human GALK1 (Homo sapiens, UniProt P51570)
observedMeasurement: 6.27

compound: CC1=C(C(=O)Nc2cc(C(=O)O)ccn2)C(c2cccc(C(N)=O)c2)N=C(Nc2nc3ccc(F)cc3o2)N1 (stereo not drawn) [Compound 76]
assayedSystem: recombinant human GALK1 (Homo sapiens, UniProt P51570)
observedMeasurement: 5.11

compound: CC1=C(C(=O)NCc2cnn(C)c2)C(c2ccc(C)cc2Cl)N=C(Nc2nc3cccc(N)c3o2)N1 (racemic) [Compound 83]
assayedSystem: recombinant human GALK1 (Homo sapiens, UniProt P51570)
observedMeasurement: 6.66

compound: CC1=C(C(=O)NCc2cncs2)C(c2ccccc2Cl)N=C(Nc2nc3ccccc3o2)N1 (stereo not drawn) [Compound 232]
assayedSystem: recombinant human GALK1 (Homo sapiens, UniProt P51570)
observedMeasurement: 5.71

compound: COC(=O)c1ccccc1CNC(=O)C1=C(C)NC(Nc2nc3ccccc3o2)=NC1c1ccccc1Cl (stereo not drawn) [Compound 222]
assayedSystem: recombinant human GALK1 (Homo sapiens, UniProt P51570)
observedMeasurement: 5.16

compound: CC1=C(C(=O)Nc2cc(C(=O)O)ccn2)C(c2cccc(F)c2Cl)N=C(Nc2nc3ccc(F)cc3o2)N1 (stereo not drawn) [Compound 48]
assayedSystem: recombinant human GALK1 (Homo sapiens, UniProt P51570)
observedMeasurement: 5.31

compound: CC1=C(C(=O)Nc2cc(C(=O)O)ccn2)C(c2ccc(C#N)cc2Cl)N=C(Nc2nc3ccc(F)cc3o2)N1 (stereo not drawn) [Compound 66]
assayedSystem: recombinant human GALK1 (Homo sapiens, UniProt P51570)
observedMeasurement: 6.21

compound: CC1=C(C(=O)Nc2nnc(-c3cccnc3)s2)C(c2ccccc2Cl)N=C(Nc2nc3ccccc3o2)N1 (stereo not drawn) [Compound 180]
assayedSystem: recombinant human GALK1 (Homo sapiens, UniProt P51570)
observedMeasurement: 5.51

compound: CC1=C(C(=O)Nc2ccc(CN3CCOCC3)cc2)C(c2ccccc2Cl)N=C(Nc2nc3ccccc3o2)N1 (stereo not drawn) [Compound 183]
assayedSystem: recombinant human GALK1 (Homo sapiens, UniProt P51570)
observedMeasurement: 5.26

compound: CC1=C(C(=O)Nc2cc(C(=O)O)ccn2)C(c2ccc(C)cc2Cl)N=C(Nc2ncc(-c3ccccc3)o2)N1 (stereo not drawn) [Compound 103]
assayedSystem: recombinant human GALK1 (Homo sapiens, UniProt P51570)
observedMeasurement: 4.61

Ref: patent US20230158025A1
